systemUnderTest: Serine/threonine-protein kinase PAK 6 (Homo sapiens);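 note: values are mean percent inhibition of PAK6 kinase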
cond: at 1 µM
measuredEndpoint: inhibition (%)
One number for each entry, in %.

Record excerpt, results attached:
                          structurenotation  quantitativereadout
0  CC(=O)NCc1cccc(C#Cc2cncnc2Nc2ccc(OCc3cccc(F)c3)c(Cl)c2)c1                -2.72
1       N#Cc1c(NC(=O)c2ccc(F)cc2)sc2c1CCCC2                -6.51
2  CCn1c(-c2nonc2N)nc2c(C#CC(C)(C)O)nc(OC[C@H](N)c3ccccc3)cc21                 77.3

Count: 7. Required value per item: inhibition.
1. COC(=O)c1sc(-n2cnc3cc(OC)c(OC)cc32)cc1OCc1ccccc1C(F)(F)F
2. Cc1ccc2c(-c3ccnc(Nc4ccccc4)n3)c(-c3ccc(F)cc3)nn2n1
3. Nc1nc(-c2ccc(F)cc2)c(-c2ccc3ncccc3n2)s1
4. COc1ccc(-c2cc(-c3c[nH]nc3-c3ccccn3)ccn2)cc1
5. CNC(=O)c1cccc(C#Cc2cncnc2Nc2ccc(OCc3cccc(F)c3)c(Cl)c2)c1
6. CCN(CC)S(=O)(=O)c1ccc(OC)c(Nc2ncc(-c3ccccc3)o2)c1
7. Cc1ccc(O)cc1Nc1ccnc2cc(-c3ccccn3)ccc12

output:
1: 0.71; 2: 5.13; 3: -1.32; 4: -3.15; 5: 0.68; 6: 4.66; 7: 4.08
